Recorded Cmax for the following molecules
Assay: Bioavailability comparison in beagles, capsules by intragastric administration, cefdinir concentration in venous blood
Assay type: in vivo
Details: both sexes, beagle, dog, venous blood, po, 200 mg, capsules containing 200 mg of cefdinir, intragastric administration, cefdinir in venous blood, read-out: Cmax
Procedure: Beagles, half male and half female, with body weight of 10 kg, were starved for 12 hrs and only water fed. The compounds of the invention were formulated into capsules containing 200 mg of cefdinir and fed to beagles by intragastric administration. The control group was administered with conventional cefdinir capsules. 3 hrs later, the beagles were fed with common food. […]
Counter-ions that a name gives are not always drawn.
Write down the numeric answer in µg/mL and omit the unit.

For this molecule ( C=CC1=C(C(=O)O)N2C(=O)[C@@H](NC(=O)/C(=N\O)c3csc(N)n3)[C@H]2SC1 [Cefdinir potassium hydrogen sulfate] ), measured Cmax is 54.1

get_value(item= C=CC1=C(C(=O)O)N2C(=O)C(NC(=O)/C(=N\O)c3csc(N)n3)C2SC1 (single isomer, unassigned; (-)) , readout=Cmax) returns 50.2
